Assay: Acute toxicity test in rats, single intravenous dose
Type: in vivo
Settings: male, Sprague-Dawley, rat, in vivo, iv; rats, single i.v. dose, 14 days; read-out: Estimated LD50
endpoint: LD50 at 14 day

For orientation, consider the following solved cases.
* O=C([O-])c1cc(NCc2c(F)c(F)c(C(F)(F)F)c(F)c2F)ccc1O.[K+] [potassium salt] | 200 to 250 mg/kg
* O=C([O-])c1cc(NCc2c(F)c(F)c(C(F)(F)F)c(F)c2F)ccc1O.[Na+] [sodium salt] | 225 to 250 mg/kg

State, in one line, measured LD50 at 14 day of O=C(O)c1cc(NCc2c(F)c(F)c(C(F)(F)F)c(F)c2F)ccc1O [free base form] 115 to 150 mg/kg
